Below is a list of entries, each paired with its recorded LogSel value.
- assayed-target: h-GABAA α1β3γ2 (Homo sapiens, UniProt P14867+P18507)
- Construct: expressed in transfected cells; host or cells: HEK293F cells, membranes
- method-notes: Radioligand binding assay, [3H]Flumazenil competition, HEK293F membranes
- conditions-used: Table 3; Log[Ki α1β3γ2 (nM)/Ki α2β2γ1 (nM)]
- Procedure: The affinity of compounds at GABAA γ2 subunit-containing receptors was measured by competition for [^3H]Flumazenil (81.1 Ci/mmol; Roche) binding to HEK293F cells expressing human (transiently transfected) receptors of composition α1β3γ2. Harvested pellets from HEK293F cells expressing the different GABAA γ2 receptor subtypes were resuspended in Mannitol Buffer pH 7.2-7.4 and processed as described above for the cells expressing the GABAA γ1 subunit-containing receptors. […]

| compound | assayed-target | LogSel |
| --- | --- | --- |
| Cc1nnc2n1-c1ccc(Cl)cc1C(c1ccccc1Cl)=NC2 [Triazolam, reference compound] | h-GABAA α1β3γ2 (Homo sapiens, UniProt P14867+P18507) | −1.5 |
| Fc1cccc(F)c1C1=NCc2nnc(-c3cccnn3)n2-c2ccc(Cl)c(Cl)c21 | h-GABAA α1β3γ2 (Homo sapiens, UniProt P14867+P18507) | 1.9 |
| Clc1ccc2c(c1)C(c1ccccc1)=NCc1nncn1-2 [Estazolam, reference compound] | h-GABAA α1β3γ2 (Homo sapiens, UniProt P14867+P18507) | −2.0 |
| Cc1nnc2n1-c1ccc(C(F)(F)F)c(Cl)c1C(c1c(F)cccc1F)=NC2 | h-GABAA α1β3γ2 (Homo sapiens, UniProt P14867+P18507) | 1.6 |
